Observed IC50, system UniProtKB Q13547.
Sequence (Q13547 whole entry): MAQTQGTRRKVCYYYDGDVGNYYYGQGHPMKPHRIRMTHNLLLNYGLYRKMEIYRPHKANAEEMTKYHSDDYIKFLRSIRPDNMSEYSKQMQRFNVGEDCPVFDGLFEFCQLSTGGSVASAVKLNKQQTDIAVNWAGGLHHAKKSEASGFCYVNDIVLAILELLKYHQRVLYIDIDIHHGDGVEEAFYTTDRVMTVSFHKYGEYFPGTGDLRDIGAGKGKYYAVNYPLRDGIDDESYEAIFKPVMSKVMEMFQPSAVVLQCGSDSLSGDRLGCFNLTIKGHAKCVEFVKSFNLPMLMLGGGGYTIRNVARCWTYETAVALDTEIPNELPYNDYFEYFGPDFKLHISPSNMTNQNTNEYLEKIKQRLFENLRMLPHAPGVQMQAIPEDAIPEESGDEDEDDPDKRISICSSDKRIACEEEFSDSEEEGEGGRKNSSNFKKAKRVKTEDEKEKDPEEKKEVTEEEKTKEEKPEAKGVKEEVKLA
Answers are plain numbers, in µM.

In [3]: df
Out[3]:
                                   compound  quantity_kind  measured_result
0  CN(Cc1ccc(-n2cnn(CCCCc3ccc(C(=O)NO)cc3)c2=O)cc1)CC(O)(Cn1cncn1)c1ccc(F)cc1F (racemic)           IC50             0.28

As a next step, examine the compound that follows.
Quick check: IC50 of CN(Cc1ccc(OCCCOc2ccc(CC(=O)NO)cc2)cc1)CC(O)(Cn1cncn1)c1ccc(F)cc1F (racemic) ?
0.69

====

Test system: Candida albicans
Test: Antifungal activity against azole-resistant Candida albicans 0304103 after 48 hrs by spectrophotometry-based serial microdilution method
Assay type: functional
Conditions: Candida albicans, 0304103, 48 h
quantity kind: MIC80

>>> print(df.to_string())
                                   compound     tested_target  quantity_kind  measured_result
0  CN(Cc1ccc(-n2cnn(CCCCCCCC(=O)NO)c2=O)cc1)CC(O)(Cn1cncn1)c1ccc(F)cc1F (racemic)  Candida albicans          MIC80          8 µg/mL
1  O=C(NO)c1ccc(OCCCc2ncn(CC(O)(Cn3cncn3)c3ccc(F)cc3F)n2)cc1 (racemic)  Candida albicans          MIC80         64 µg/mL

For every listed record, write down its MIC80.
1. OC(Cn1cncn1)(Cn1cncn1)c1ccc(F)cc1F
2. CC(C)N(Cc1ccc(OCCCOc2ccc(CC(=O)NO)cc2)cc1)CC(O)(Cn1cncn1)c1ccc(F)cc1F (racemic)

> 64 µg/mL
2 µg/mL

For every listed record, write down its MIC80.
1. CN(Cc1ccccc1OCCCOc1ccc(C(=O)NO)cc1)CC(O)(Cn1cncn1)c1ccc(F)cc1F (racemic)
2. CN(Cc1ccc(-n2cnn(CCCOc3ccc(CC(=O)NO)cc3)c2=O)cc1)CC(O)(Cn1cncn1)c1ccc(F)cc1F (racemic)
3. CN(Cc1ccc(-n2cnn(CCCCc3ccc(C(=O)NO)cc3)c2=O)cc1)CC(O)(Cn1cncn1)c1ccc(F)cc1F (racemic)

1: 4 µg/mL; 2: 32 µg/mL; 3: 2 µg/mL

All values here come from ChEMBL document CHEMBL4342527.
